metric_name: melting point

• COc1ccc(-c2ccc(C)s2)c2sc(NC(=O)c3ccc(CCl)cc3)nc12 = 130 to 146 °C
• COc1ccc(-c2ccc(C)s2)c2sc(NC(=O)N3CCC(O)CC3)nc12 = 197 to 204 °C (dec.)
• COc1ccc(-c2csc(-c3ccccn3)n2)c2sc(NC(=O)c3ccc(CCl)cc3)nc12 = 195 to 201 °C
• COc1ccc(-c2csc(C)n2)c2sc(NC(=O)N3CCN(C)CC3)nc12 = 179 to 181 °C
• COc1ccc(-c2ccc(C)s2)c2sc(NC(=O)N3CCOCC3)nc12 = 173 to 180 °C (dec.)
• CCOC(=O)C(=O)Nc1nc2c(OC)ccc(-c3ccccc3)c2s1 = 138 to 142 °C
• COc1ccc(-c2csc(N3CCCCC3)n2)c2sc(NC(=O)N3CCOCC3)nc12 = 227 to 234 °C
• COc1ccc(-c2csc(N3CCN(C)CC3)n2)c2sc(NC(=O)N3CCOCC3)nc12 = 150 to 170 °C
• COc1ccc(-c2csc(C)n2)c2sc(NC(=O)c3ccc(F)cc3)nc12 = 217 to 219 °C

* * *

system_tested: human adenosine A2A receptor (Homo sapiens)
Construct: expressed in transfected cells; host or cells: CHO cells, Semliki Forest virus expression system; washed membrane pellet used
protocol_summary: [3H]-SCH-58261 binding assay at the human adenosine A2A receptor
metric_name: Ki

- COc1ccc(N2CCOCC2)c2sc(NC(=O)N3CCC(=O)CC3)nc12: 3.16 nM

* * *

system_tested: human adenosine A2A receptor (Homo sapiens, UniProt P29274)
Construct: expressed in transfected cells; host or cells: CHO cells, Semliki Forest virus expression system; washed membrane pellet used
Sequence (P29274 whole entry): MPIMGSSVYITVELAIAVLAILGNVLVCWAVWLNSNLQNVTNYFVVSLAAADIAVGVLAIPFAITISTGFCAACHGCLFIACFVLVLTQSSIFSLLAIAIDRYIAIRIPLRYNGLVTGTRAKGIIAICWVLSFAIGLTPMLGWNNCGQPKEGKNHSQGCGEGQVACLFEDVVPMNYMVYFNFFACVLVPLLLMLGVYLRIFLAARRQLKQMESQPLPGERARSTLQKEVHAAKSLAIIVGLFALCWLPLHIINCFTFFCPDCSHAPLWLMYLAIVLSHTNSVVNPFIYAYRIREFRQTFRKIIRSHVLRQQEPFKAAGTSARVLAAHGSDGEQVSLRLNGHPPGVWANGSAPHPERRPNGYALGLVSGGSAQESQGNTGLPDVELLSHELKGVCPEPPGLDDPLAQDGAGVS
protocol_summary: [3H]-SCH-58261 binding assay at the human adenosine A2A receptor
setup_conditions: read-out: pKi value (converted)
Some compounds, each annotated with its measured Ki.
metric_name: Ki (nM)

• COc1ccc(N2CCOCC2)c2sc(NC(=O)c3ccc(F)cc3)nc12 = 2
• COCCNCc1cc(C(=O)Nc2nc3c(OC)ccc(N4CCOCC4)c3s2)ccc1Cl = 2.51
• COc1ccc(-c2ccccc2)c2sc(NC(=O)c3ccncc3)nc12 = 0.794
• CCN(CCOC)Cc1cc(C(=O)Nc2nc3c(OC)ccc(N4CCOCC4)c3s2)ccc1Cl = 3.16
• COc1ccc(N2CCOCC2)c2sc(NC(=O)C3CCN(C(C)=O)CC3)nc12 = 3.16
• CNCc1cc(C(=O)Nc2nc3c(OC)ccc(N4CCOCC4)c3s2)ccc1Cl = 2
• CNCc1ccc(C(=O)Nc2nc3c(OC)ccc(N4CCOCC4)c3s2)cc1 = 1.58
• COC(=O)Nc1nc2c(OC)ccc(-c3csc(-c4ccc(C)nc4)n3)c2s1 = 2.51
• COc1ccc(N2CCOCC2)c2sc(NC(=O)c3ccc(Cn4ccnc4C)cc3)nc12 = 0.794
• CNCc1cccc(C(=O)Nc2nc3c(OC)ccc(N4CCOCC4)c3s2)c1 = 1.58
• COc1ccc(N2CCOCC2)c2sc(NC(=O)c3ccccc3)nc12 = 2
• COc1ccc(N2CCOCC2)c2sc(NC(=O)C3CCN(C(=O)OC(C)(C)C)CC3)nc12 = 3.16
• COCCNCc1cccc(C(=O)Nc2nc3c(OC)ccc(N4CCOCC4)c3s2)c1 = 1.58
• COc1ccc(-c2ccccc2)c2sc(NC(=O)c3ccc(CNCc4cccnc4)cc3)nc12 = 1.58
• COc1ccc(-c2ccccc2)c2sc(NC(=O)c3ccc(CO)cc3)nc12 = 0.501
• COc1ccc(N2CCOCC2)c2sc(NC(=O)c3ccc(CSCCN(C)C)cc3)nc12 = 2
• COc1ccc(-c2ccccc2)c2sc(NC(=O)c3ccc(C)s3)nc12 = 1.58
• COc1ccc(-c2ccccc2)c2sc(NC(=O)c3ccc(Cn4ccnc4)cc3)nc12 = 0.501
• COc1ccc(N2CCOCC2)c2sc(NC(=O)c3cccc(CN4CCCC4)c3)nc12 = 1.26
• COCCN(C)Cc1cccc(C(=O)Nc2nc3c(OC)ccc(N4CCOCC4)c3s2)c1 = 3.16
• COc1ccc(-c2ccccc2)c2sc(NC(=O)c3ccc(F)cc3)nc12 = 1.26
• COc1ccc(-c2ccccc2)c2sc(NC(=O)c3ccc(CN4CC[C@H](N(C)C)C4)cc3)nc12 = 1
• COc1ccc(-c2ccccc2)c2sc(NC(=O)c3ccc(CNCc4ccncc4)cc3)nc12 = 1.58
• COCCOCc1ccc(C(=O)Nc2nc3c(OC)ccc(N4CCOCC4)c3s2)cc1 = 3.16
• COC(=O)N(C)Cc1ccc(C(=O)Nc2nc3c(OC)ccc(N4CCOCC4)c3s2)cc1 = 0.631
• COc1ccc(-c2cccc(N)c2)c2sc(NC(=O)c3ccc(C)s3)nc12 = 0.794
• COc1ccc(-c2ccccc2)c2sc(NC(=O)c3ccc(CN)cc3)nc12 = 1
• COc1ccc(N2CCOCC2)c2sc(NC(=O)c3ccc(Cl)c(CN4CCCC4)c3)nc12 = 1
